Tested on: Echinochloa crus-galli (ECHCG)
experiment: B1 Post-emergence efficacy, glasshouse pot test
Assay type: in vivo
condition details: post-emergence application, 1000 g/ha, evaluated after 13 days
Description: B1 Post-Emergence Efficacy Seeds of a variety of test species are sown in standard soil in pots:—Solanum nigrum (SOLNI), Amaranthus retoflexus (AMARE), Setaria faberi (SETFA), Alopecurus myosuroides (ALOMY), Echinochloa crus-galli (ECHCG), Ipomoea hederacea (IPOHE), Lolium perenne (LOLPE). […] After 13 days, the test is evaluated for the percentage damage caused to the plant. The biological activities are assessed on a five point scale (5=80-100%; 4=60-79%; 3=40-59%; 2=20-39%; 1=0-19%). […]
ECHCG: percentage damage caused to the plant (five point scale) by entry:
outcome measure: ECHCG: percentage damage caused to the plant (five point scale)

Cn1nc(C2CC2)c(O)c(-c2c(C(F)(F)F)ccc(Cl)c2OCc2ccccc2)c1=O [Compound 1.070]
5 (5=80-100%)
Cn1nc(S(C)(=O)=O)c(O)c(-c2c(Cl)ccc(Cl)c2OCc2ccccc2)c1=O [Compound 1.082]
1 (1=0-19%)
CCn1nc(C)c(O)c(-c2c(F)ccc(Cl)c2OCc2ccccc2)c1=O [Compound 1.037]
5 (5=80-100%)
Cc1nn(C2CC2)c(=O)c(-c2c(Cl)ccc(Cl)c2OCc2ccccc2)c1O [Compound 1.041]
5 (5=80-100%)
Cn1nc(S(C)(=O)=O)c(O)c(-c2c(F)ccc(Cl)c2OCc2ccccc2)c1=O [Compound 1.079]
1 (1=0-19%)
C#CCn1nc(C)c(O)c(-c2c(F)ccc(Cl)c2OCc2ccccc2)c1=O [Compound 1.077]
5 (5=80-100%)
Cc1nn(C)c(=O)c(-c2c(Cl)ccc(Cl)c2OCc2ccc(Cl)c(Cl)c2)c1O [Compound 1.005]
5 (5=80-100%)
Cc1nn(C)c(=O)c(-c2c(C(F)(F)F)ccc(Cl)c2OCc2ccccc2)c1O [Compound 1.073]
5 (5=80-100%)
Cn1nc([S+](C)[O-])c(O)c(-c2c(F)ccc(Cl)c2OCc2ccccc2)c1=O (centres unmarked) [Compound 1.080]
1 (1=0-19%)
Cn1nc([S+](C)[O-])c(O)c(-c2c(Cl)ccc(Cl)c2OCc2ccccc2)c1=O (centres unmarked) [Compound 1.083]
1 (1=0-19%)
CC1=NN(C)C(=O)C(c2c(Cl)ccc(Cl)c2OCc2ccccc2)C1=O (centres unmarked) [Compound 1.001]
5 (5=80-100%)
Cn1nc(C2CC2)c(O)c(-c2c(F)ccc(Cl)c2OCc2ccccc2)c1=O [Compound 1.012]
5 (5=80-100%)
Cc1nn(C2CC2)c(=O)c(-c2c(F)ccc(Cl)c2OCc2ccccc2)c1O [Compound 1.044]
5 (5=80-100%)
Cc1nn(C)c(=O)c(-c2c(Cl)cccc2OCc2ccccc2)c1O [Compound 1.068]
4 (4=60-79%)
Cc1nn(C)c(=O)c(-c2ccccc2OCc2ccccc2)c1O [Compound 1.002]
1 (1=0-19%)
CCc1nn(C)c(=O)c(-c2c(F)ccc(Cl)c2OCc2ccccc2)c1O [Compound 1.010]
4 (4=60-79%)
CN(C)c1nn(C)c(=O)c(-c2c(Cl)ccc(Cl)c2OCc2ccccc2)c1O [Compound 1.087]
5 (5=80-100%)

From: patent US9944608B2
